Recorded values, source PubChem BioAssay (NCI).

System: BT-549 breast
Assay: NCI tumour cell line growth inhibition, 48 h
measured-property: TGI

Known results for compounds:
- N/C(=N\S(=O)(=O)c1ccc(-c2ccccn2)s1)Nc1ccc(Cl)cc1: 32.6 µM
- O=C(N/N=C\c1cccs1)c1ccncc1: > 100 µM
- N/C(=N\NC(=O)c1nc2ccccc2s1)c1ccccn1: > 100 µM
- CN(C)C[C@H]1CCn2c(c(C3=C(c4cn(C)c5ccccc45)C(=O)NC3=O)c3ccccc32)C1: 9.53 µM

Q) Return TGI for the following compound: Nc1ncn(C2OC(COP(=O)(O)O)C(O)C2O)c(=O)n1 (stereo unspecified)
A) > 100 µM

Q) Return TGI for the following compound: Cc1cc(C(=O)Nc2cc(Oc3ccc4nc(NC(=O)C5CC5)cn4n3)ccc2C)n(C)n1
A) > 10 µM
